meta.source: ChEMBL document CHEMBL5131499

# Organism: Sus scrofa
# test_name: Inhibition of porcine kidney alpha-trehalase assessed as release of p-nitrophenol at 1000 uM using p-nitrophenyl glycoside as substrate by spectrometric assay relative to control
Label 1.0 when inhibition >= 2%; otherwise 0.0.

Use the examples below as a reference point.
structure_string | discrete_label
OC[C@@]1(c2cccc(F)c2)NC[C@@H](O)[C@@H]1O | 1.0
Cc1ccc([C@@]2(CO)NC[C@H](O)[C@H]2O)cc1 | 0.0
COc1cccc([C@]2(CO)NC[C@@H](O)[C@@H]2O)c1 | 1.0
COc1ccc([C@]2(CO)NC[C@@H](O)[C@@H]2O)cc1OC | 0.0
C[C@]1(CO)NC[C@@H](O)[C@@H]1O | 1.0

Query: Given OC[C@@]1(c2ccccc2)NC[C@@H](O)[C@@H]1O , state whether its inhibition is at least 2%.
Reply: 0.0

Query: Reported inhibition reaches at least 2% for COc1ccc([C@]2(CO)NC[C@@H](O)[C@@H]2O)cc1 ?
Reply: 1.0

Query: Hi team, for OC[C@@]1(c2ccc(F)cc2)NC[C@@H](O)[C@@H]1O , is the recorded inhibition at or above 2%?
Reply: 1.0

Query: In plain terms: is recorded inhibition at least 2% for Cc1ccc([C@]2(CO)NC[C@@H](O)[C@@H]2O)cc1 ?
Reply: 0.0

Query: Please tell me: is the molecule CCCC[C@]1(CO)NC[C@@H](O)[C@@H]1O at or over 2% in terms of inhibition?
Reply: 1.0

Query: Check if inhibition >= 2% (inclusive). Item: OC[C@]1(c2ccc(F)cc2)NC[C@H](O)[C@H]1O
Reply: 1.0

Query: Please check the record OC[C@]1(c2cccc(F)c2)NC[C@H](O)[C@H]1O and state if its inhibition is at or above 2%.
Reply: 1.0

Query: Entry OC[C@@]1(c2c(F)c(F)c(F)c(F)c2F)NC[C@@H](O)[C@@H]1O : is its inhibition no less than 2%?
Reply: 0.0

Query: Hi, just wondering whether OC[C@]1(c2ccc(O)cc2)NC[C@H](O)[C@H]1O shows inhibition of 2% or higher.
Reply: 1.0
